# measurement target: 5-HT1A receptor (rat hippocampus tissue homogenates) (Rattus norvegicus)
# Construct: in rat hippocampal membrane preparations; from tissue; host or cells: rat hippocampus (membrane preparations / tissue homogenates)
# Sequence (P19327 whole entry): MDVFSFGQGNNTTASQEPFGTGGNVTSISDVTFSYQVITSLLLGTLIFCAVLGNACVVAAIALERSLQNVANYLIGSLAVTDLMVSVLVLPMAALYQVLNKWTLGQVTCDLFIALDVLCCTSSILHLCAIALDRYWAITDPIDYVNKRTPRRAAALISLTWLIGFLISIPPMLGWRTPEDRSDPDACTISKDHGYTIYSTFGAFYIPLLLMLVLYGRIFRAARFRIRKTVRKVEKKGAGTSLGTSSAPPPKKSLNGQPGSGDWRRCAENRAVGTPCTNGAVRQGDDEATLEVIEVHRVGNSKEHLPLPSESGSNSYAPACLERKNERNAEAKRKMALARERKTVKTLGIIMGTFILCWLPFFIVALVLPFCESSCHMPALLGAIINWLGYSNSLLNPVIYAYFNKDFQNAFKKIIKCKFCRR
# assay overview: Saturation binding of [^125 I]p-MPPI to rat hippocampus tissue homogenates
# run conditions: rat hippocampal homogenates; Kung, Unpublished data; read-out: Kd (Table I footnote)
property name: pKd
By convention, pKd is the negative base-10 log of a molar concentration.

What measured pKd goes with COc1ccccc1N1CCN(CCN(C(=O)c2ccc([125I])cc2)c2ccccn2)CC1 [[^125 I]-MPPI] ?
9.52

====

# assay overview: Regional brain distribution in rats after iv injection
# Assay type: in vivo, Male Sprague-Dawley rats
# run conditions: rat, hippocampus; 2 min, iv, rats (Table III); read-out: Regional distribution, hippocampus
property name: tissue uptake at 2 min

Would you mind telling me what tissue uptake at 2 min value was observed for COc1ccccc1N1CCN(CCN(C(=O)c2ccc([123I])cc2)c2ccccn2)CC1 [[^123 I] 1a] ?
0.87 %ID/g

====

# assay overview: Regional brain distribution in rats after iv injection
# Assay type: in vivo, Male Sprague-Dawley rats
# run conditions: rat, hippocampus; 60 min, iv, rats (Table IV); read-out: Regional distribution, hippocampus
property name: tissue uptake at 1 h (%ID/g)
The figure you give is taken to be in %ID/g; do not add the unit.

What does the record list as tissue uptake at 1 h for COc1ccccc1N1CCN(CCN(C(=O)c2cccc([123I])c2)c2ccccn2)CC1 [[^123 I] 1b] ?
0.013

====

Let's look at some molecules and their measured pKi.
# measurement target: 5-HT1A receptor (rat hippocampal homogenates) (Rattus norvegicus)
# Construct: in rat hippocampal membrane preparations; from tissue; host or cells: rat hippocampus (membrane preparations / tissue homogenates)
# Sequence (P19327 whole entry): as above
# assay overview: Inhibition of [^125 I]-8-OH-PIPAT binding to rat hippocampal homogenates
# run conditions: ligand [^125 I]-8-OH-PIPAT
Note: pKi values are expressed as the negative base-10 logarithm of concentration in M.

Example molecules with recorded pKi:
pKi for "COc1ccccc1N1CCN(CCN(C(=O)c2cccc(I)c2)c2ccccn2)CC1" ?
8.77

Report pKi for "COc1ccccc1N1CCN(CCN(C(=O)c2ccc(F)cc2)c2ccccn2)CC1" please.
8.48

Would you kindly share the measured pKi for "COc1ccccc1N1CCN(CCN(C(=O)c2ccc(I)cc2)c2ccccn2)CC1" ?
8.59

Turning now to a further molecule:
Give its pKi value. Item: "COc1ccccc1N1CCN(CCN(C(=O)c2ccc(I)cc2)c2ncccn2)CC1"
8.22

====

# assay overview: Regional brain distribution in rats after iv injection
# Type: in vivo, Male Sprague-Dawley rats
# run conditions: rat, hypothalamus; 60 min, iv, rats (Table IV); read-out: Regional distribution, hypothalamus
property name: tissue uptake at 1 h (%ID/g)
Report as a plain number; the unit %ID/g is understood.

// query tissue uptake at 1 h value for entry COc1ccccc1N1CCN(CCN(C(=O)c2cccc([123I])c2)c2ccccn2)CC1 [[^123 I] 1b]
0.015

====

# assay overview: Regional brain distribution in rats after iv injection
# Assay type: in vivo, Male Sprague-Dawley rats
# run conditions: rat, striatum; 120 min, iv, rats (Table IV); read-out: Regional distribution, striatum
property name: tissue uptake at 2 h (%ID/g)
Reply with just the number (in %ID/g).

Any idea what tissue uptake at 2 h was measured for COc1ccccc1N1CCN(CCN(C(=O)c2cccc([123I])c2)c2ccccn2)CC1 [[^123 I] 1b] ?
0.006

====

# assay overview: Regional brain distribution in rats after iv injection
# Format: in vivo, Male Sprague-Dawley rats
# run conditions: rat, striatum; 3 min, iv, rats (Table IV); read-out: Regional distribution, striatum
property name: tissue uptake at 0.05 h (%ID/g)
Your answer should be a plain number; it is taken to be in %ID/g.

Param item = COc1ccccc1N1CCN(CCN(C(=O)c2cccc([123I])c2)c2ccccn2)CC1 [[^123 I] 1b] ; retrieve measured tissue uptake at 0.05 h.
0.042

====

# assay overview: Regional brain distribution in rats after iv injection
# Format: in vivo, Male Sprague-Dawley rats
# run conditions: rat, striatum; 60 min, iv, rats (Table IV); read-out: Regional distribution, striatum
property name: tissue uptake at 1 h (%ID/g)
# output: bare number, implied unit %ID/g

Request the reported tissue uptake at 1 h associated with COc1ccccc1N1CCN(CCN(C(=O)c2cccc([123I])c2)c2ccccn2)CC1 [[^123 I] 1b]
0.012

====

# assay overview: Regional brain distribution in rats after iv injection
# Type: in vivo, Male Sprague-Dawley rats
# run conditions: rat, cortex; 30 min, iv, rats (Table III); read-out: Regional distribution, cortex
property name: tissue uptake at 0.5 h (%ID/g)
Number only, in %ID/g; omit the unit.

Look up tissue uptake at 0.5 h for this molecule: COc1ccccc1N1CCN(CCN(C(=O)c2ccc([123I])cc2)c2ccccn2)CC1 [[^123 I] 1a]
0.11

====

# assay overview: Regional brain distribution in rats after iv injection
# Assay type: in vivo, Male Sprague-Dawley rats
# run conditions: rat, cortex; 3 min, iv, rats (Table IV); read-out: Regional distribution, cortex
property name: tissue uptake at 0.05 h (%ID/g)
Hi! Could you send only the number? It should be in %ID/g, unit omitted.

Fill in: tissue uptake at 0.05 h of COc1ccccc1N1CCN(CCN(C(=O)c2cccc([123I])c2)c2ccccn2)CC1 [[^123 I] 1b] is ___
0.043

====

# assay overview: Regional brain distribution in rats after iv injection
# Type: in vivo, Male Sprague-Dawley rats
# run conditions: rat, cortex; 60 min, iv, rats (Table IV); read-out: Regional distribution, cortex
property name: tissue uptake at 1 h

Data request, read-out tissue uptake at 1 h, for COc1ccccc1N1CCN(CCN(C(=O)c2cccc([123I])c2)c2ccccn2)CC1 [[^123 I] 1b]
0.015 %ID/g

====

# assay overview: Regional brain distribution in rats after iv injection
# Format: in vivo, Male Sprague-Dawley rats
# run conditions: rat, striatum; 60 min, iv, rats (Table III); read-out: Regional distribution, striatum
property name: tissue uptake at 1 h (%ID/g)
# number only, unit %ID/g dropped from output

Suppose we examine the molecule COc1ccccc1N1CCN(CCN(C(=O)c2ccc([123I])cc2)c2ccccn2)CC1 [[^123 I] 1a] ; what tissue uptake at 1 h value has been reported?
0.046

====

# assay overview: Regional brain distribution in rats after iv injection
# Assay type: in vivo, Male Sprague-Dawley rats
# run conditions: rat, hippocampus; 120 min, iv, rats (Table IV); read-out: Regional distribution, hippocampus
property name: tissue uptake at 2 h (%ID/g)
The figure you give is taken to be in %ID/g; do not add the unit.

Can you share its tissue uptake at 2 h? I mean this compound: COc1ccccc1N1CCN(CCN(C(=O)c2cccc([123I])c2)c2ccccn2)CC1 [[^123 I] 1b]
0.006

====

# assay overview: Regional brain distribution in rats after iv injection
# Type: in vivo, Male Sprague-Dawley rats
# run conditions: rat, hippocampus; 2 min, iv, rats (Table IV); read-out: Regional distribution, hippocampus
property name: tissue uptake at 2 min (%ID/g)
Value expressed in %ID/g; do not type the unit.

Param item = COc1ccccc1N1CCN(CCN(C(=O)c2cccc([123I])c2)c2ccccn2)CC1 [[^123 I] 1b] ; retrieve measured tissue uptake at 2 min.
0.54

====

# assay overview: Biodistribution in rats after iv injection
# Type: in vivo, Male Sprague-Dawley rats
# run conditions: 2 min, average of 3 rats ± SD
property name: Brain uptake (% dose/organ)
Numbers only; they are read as % dose/organ.

Example entries begin here.
# Brain uptake lookup, item COc1ccccc1N1CCN(CCN(C(=O)c2ccc(I)cc2)c2ccccn2)CC1 [Compound 1a]
1.22

Reported Brain uptake for COc1ccccc1N1CCN(CCN(C(=O)c2ccc([123I])cc2)c2ccccn2)CC1 [[^123 I] 1a] : what is it?
1.22

Which Brain uptake value is on record for COc1ccccc1N1CCN(CCN(C(=O)c2cccc([123I])c2)c2ccccn2)CC1 [[^123 I] 1b] ?
0.76

Attention now shifts to the item below.
So what's the measured Brain uptake for this one? COc1ccccc1N1CCN(CCN(C(=O)c2cccc(I)c2)c2ccccn2)CC1 [Compound 1b]
0.76

====

# assay overview: Regional brain distribution in rats after iv injection
# Format: in vivo, Male Sprague-Dawley rats
# run conditions: rat, hippocampus; 30 min, iv, rats (Table III); read-out: Regional distribution, hippocampus
property name: tissue uptake at 0.5 h (%ID/g)
A number alone suffices; assume %ID/g.

Endpoint output: tissue uptake at 0.5 h of COc1ccccc1N1CCN(CCN(C(=O)c2ccc([123I])cc2)c2ccccn2)CC1 [[^123 I] 1a] . Value?
0.23

====

# assay overview: Regional brain distribution in rats after iv injection
# Type: in vivo, Male Sprague-Dawley rats
# run conditions: rat, hippocampus; 60 minutes after iv injection, ^123 I labeled; read-out: Uptake in hippocampal tissue
property name: tissue uptake at 1 h
Number first, unit second.

What tissue uptake at 1 h value was documented for this molecule, "COc1ccccc1N1CCN(CCN(C(=O)c2cccc(I)c2)c2ccccn2)CC1" ?
0.013 %ID/g

Lab note: next molecule to report on.
Value lookup for tissue uptake at 1 h; key = "COc1ccccc1N1CCN(CCN(C(=O)c2ccc(I)cc2)c2ccccn2)CC1"
0.13 %ID/g
